- test_details: Evaluation of stability in liver microsome
- measurement_parameters: mouse liver microsome 0.25 mg/mL, test compound 1 μM, 37° C., 30 minutes
result_type: Remaining (%)
API: value field is a number in %; no unit string.

Some entries whose results are on file:
COCc1ccc(NC(=O)c2c(C#Cc3ccc(OC)nc3)n(C3(C)CC3)c3ncnc(N)c23)cc1    79
COCc1ccc(NC(=O)c2c(Br)n(C3(C)CC3)c3ncnc(N)c23)cc1    56
CCc1c(C(=O)Nc2ccc(COC)cc2)c2c(N)ncnc2n1C1(C)CC1    72

Please fill in: Remaining (%) reported for `COCc1ccc(NC(=O)c2c(C#CCC3CCOCC3)n(C3(C)CC3)c3ncnc(N)c23)cc1` = 57

Reported Remaining (%) for `COCc1ccc(NC(=O)c2c(C#Cc3ccccn3)n(C3(C)CC3)c3ncnc(N)c23)cc1` was 61

Record `COCc1ccc(NC(=O)c2c(C)n(C(C)(C)C)c3ncnc(N)c23)cc1` . Reported Remaining (%): 81

GET /value?item= `COCc1ccc(NC(=O)c2c(-c3cccnc3)n(C3(C)CC3)c3ncnc(N)c23)cc1` &field=Remaining (%) returns 81

The value of Remaining (%) measured for the compound `COCc1ccc(NC(=O)c2c(C#Cc3cnc4ccoc4c3)n(C3(C)CC3)c3ncnc(N)c23)cc1` turned out to be 78
